experiment: in vitro; details: human, hela cells, % viability
Each record is given class 1 if its reported viability at 28.5 h, 10 µM is strictly below 90%. Records at or above 90% are given class 0.

INSERT INTO measurements (compound, answer_label) VALUES
  ('COc1cncc(-c2cc(N3CCN(S(=O)(=O)c4ccc(Cl)cc4)CC3)ncn2)c1', 'class 0'),
  ('COc1ccc(Cl)cc1NC(=O)CCSc1ccccc1', 'class 1'),
  ('Cc1nc(NCCc2cnc(=O)n(C)c2O)cc(C2CCOC2)n1 (stereo not drawn)', 'class 0'),
  ('CN(Cc1cccc(C(F)(F)F)c1)C(=O)c1cn(CC2CCCO2)nn1 (stereo not drawn)', 'class 0'),
  ('CC(=O)CSc1nnc(COc2ccc(C3CCCCC3)cc2)n1-c1ccccc1', 'class 0'),
  ('CCOC(=O)N1CCN(Cc2ccc(OCc3cccnc3)cc2)CC1', 'class 1'),
  ('Cc1cc2cc3c(nc2cc1C)OCCNC3', 'class 0'),
  ('NC(=O)[C@H]1C[C@@H](O)[C@H](O)[C@H]2[C@@H]1S/C(=N\c1ccccc1)N2Cc1cccs1', 'class 0');

====

assay: in vitro; details: human, hela cells, % viability
Each record is given Met if its reported viability at 28.5 h, 10 µM is strictly below 90%. Records at or above 90% are given Not met.

INSERT INTO assay_data (compound, answer_label) VALUES
  ('CCC(O)Cn1nc(CCSC)nc1-c1cn(C)c(=O)[nH]c1=O (centres unmarked) [CBK306588]', 'Met'),
  ('CCc1c(CC)c(OC(=O)C(N)C(C)C)c2ccccc2c1OC (centres unmarked) [CBK016484C]', 'Not met'),
  ('O=C(O)C1CCCCC1C(=O)N1CCN(Cc2cccc(Cl)c2)CC1 (centres unmarked) [CBK270330]', 'Met');

====

experiment: in vitro; conditions: human, hela cells, % viability
// reported viability at 28.5 h, 10 µM per item
REPORTED PROPERTY: viability at 28.5 h, 10 µM (%)

INSERT INTO measurements (compound, readout_number) VALUES
  ('COc1cc(S(=O)(=O)NCCc2ccccc2)c(OC)cc1C [CBK269868]', 94.1),
  ('Cc1nc(-c2cccs2)cc([C@H]2CN3CC[C@H]2C[C@@H]3CNC(=O)c2ccco2)n1 [CBK289127]', 86.9),
  ('CC(=O)NCc1nnc2c3ccccc3c(-c3ccccc3)nn12 [CBK270123]', 92.3),
  ('O=C(OCCC1SC(NC2CC3C=CC2C3)=NC1=O)c1cc(C(F)(F)F)cc(C(F)(F)F)c1 (stereo not drawn) [CBK056857T]', 100),
  ('Cc1nc(S(=O)(=O)N2CCC3(CCCCC3)C2)cn1C [CBK306306]', 100),
  ('O=S(=O)(/N=C(/c1ccc(Cl)cc1)N1CCOCC1)c1ccccc1 [CBK293950]', 93.5),
  ('Cn1cc(C(=O)NC2CCN(C(=O)c3ccc(C#N)cc3)CC2)cn1 [CBK305683]', 94.4),
  ('CC(=O)Nc1cccc(-c2cnc(N(C)S(C)(=O)=O)c(C(=O)NCc3ccc4c(c3)CCO4)c2)c1 [CBK076609]', 99.7),
  ('CC(C)NS(=O)(=O)c1ccc(NS(=O)(=O)c2cccc(C(=O)O)c2)cc1 [CBK296950]', 84.3);
